- EXPERIMENT_NOTES: PK i.v. bolus in healthy and adenine/high-phosphate-diet (uremic) rats
- Assay type: in vivo, male Sprague-Dawley rats
- RUN_PARAMETERS: male, Sprague-Dawley, rat, serum, iv, 10 mg/kg, 10 mg/kg i.v. bolus, Uremic; read-out: MRT0-240 (converted)
- Protocol: For many drugs, the PK profile depends on the patient’s renal status. Therefore, (OEG2)2-IP4 PK profile was also determined in an adenine and high-phosphate-diet-induced rat model of uremia, in which the compound was administered after serum creatinine levels had increased by fourfold relative to baseline (Fig. 4g, h). […] Similar results were observed following s.c. administration (Supplementary Table 5). […]
REPORTED_PROPERTY: MRT last

q: Returns the measured MRT last for the input compound. Input: COCCOCCO[C@@H]1[C@@H](OP(=O)(O)O)[C@H](OCCOCCOC)[C@@H](OP(=O)(O)O)[C@@H](OP(=O)(O)O)[C@H]1OP(=O)(O)O [(OEG2)2-IP4]
a: 53 min
